# target-system: Tyrosine-protein kinase Tec (Homo sapiens);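 note: each value is the mean of the inhibition measurements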
# test-settings: at 1 µM
readout-label: inhibition (%)
Please state the figure in %; there is no need to write the unit.

Endpoint output: inhibition of CN(C)C(=O)O[C@@H]1CN[C@@H](C#Cc2cc3ncnc(Nc4ccc(OCc5cccc(F)c5)c(Cl)c4)c3s2)C1 . Value?
6.39

# inhibition lookup, item COC(=O)c1cncc(/C=C/c2c(C)cc(O)cc2C)c1
20.5

Value lookup for inhibition; key = Cc1nc(-c2ccccc2)n2nc(NCCCN3CCOCC3)ncc12
3.32

Fill blank: measured inhibition of the compound COc1cccc(-n2ncc3c(N/N=C/c4ccc(S(C)(=O)=O)cc4)ncnc32)c1 is ____.
10.4

What value of measured inhibition is listed for NS(=O)(=O)c1ccc(-c2cc3ccncc3cc2OCc2ccccc2)cc1 ?
4.44

So what does the record say about inhibition for Nc1nccc(-c2c(-c3ccc(F)cc3)nn3cc(C(F)(F)F)ccc23)n1 ?
4.1

Query: inhibition; subject: Cc1ccc2c(c1)/C(=N/Nc1ccc(S(N)(=O)=O)cc1)C(=O)N2
4.33

Requested field: inhibition. Item: O=C1Nc2ccc(-c3cccnc3)cc2C1=Cc1cc(Br)c(O)c(Br)c1
8.99

Reported inhibition for CN(C)CCCn1c(-c2nonc2N)nc2cnccc21 : what is it?
4.06

# context switch: different compound, same inhibition
Given Cc1ccc(Nc2ccnc(Nc3cccc(C(N)=O)c3)n2)cc1O , state its recorded inhibition.
57.1

Cited source for all entries: ChEMBL document CHEMBL1961873
